target-under-test: T1, recombinant human Siglec-15-his protein (Bonopusbio) (human, UniProt Q6ZMC9 20-263)
T1 construct: Bought (CW37-50 ug in the ELISA; the SPR paragraph prints CW70-50 ug); whole entry named; also called recombinant human Siglec-15 protein
T1 sequence: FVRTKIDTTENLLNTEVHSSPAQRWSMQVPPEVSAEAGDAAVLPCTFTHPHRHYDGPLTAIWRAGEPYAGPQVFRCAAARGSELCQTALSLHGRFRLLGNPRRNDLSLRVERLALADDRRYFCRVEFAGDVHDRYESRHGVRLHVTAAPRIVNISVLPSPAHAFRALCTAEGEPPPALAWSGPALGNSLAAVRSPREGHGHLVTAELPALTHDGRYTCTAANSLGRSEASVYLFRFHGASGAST
measurement-description: SPR (Biacore T200), antibody on CM5 chip, Siglec-15-his as analyte
recorded-endpoint: kon (M⁻¹ s⁻¹)
One number for each entry, in M⁻¹ s⁻¹.

**Q:** For the binder S15B1-VH1 + VL2 (antibody, V domains shown, Humanized S15B1; also called humanized S15B1 VH1+VL2; huS15B1) VH: QVQLVQSGAEVKKPGASVKVSCKASGYAFSSSWMNWVRQAPGQGLEWIGRIYPGHGETNYNGKFKDRVTMTADTSTSTVYMELSSLRSEDTAVYFCARVDNSDPYYFDYWGQGTTVTVSS VL: DIVLTQSPASLAVSPGQRATITCRASKSVSTSGYSYMHWYQQKPGQPPKLLIYLASNLESGVPARFSGSGSGTDFTLTINPVEAEDTATYYCQHGRELPFTFGGGTKLEIK , what kon is on record?
**A:** 3.54e+06
